B1: PhoQ; a variant is named by its letters at X, in order, P23837 (parent)
chain: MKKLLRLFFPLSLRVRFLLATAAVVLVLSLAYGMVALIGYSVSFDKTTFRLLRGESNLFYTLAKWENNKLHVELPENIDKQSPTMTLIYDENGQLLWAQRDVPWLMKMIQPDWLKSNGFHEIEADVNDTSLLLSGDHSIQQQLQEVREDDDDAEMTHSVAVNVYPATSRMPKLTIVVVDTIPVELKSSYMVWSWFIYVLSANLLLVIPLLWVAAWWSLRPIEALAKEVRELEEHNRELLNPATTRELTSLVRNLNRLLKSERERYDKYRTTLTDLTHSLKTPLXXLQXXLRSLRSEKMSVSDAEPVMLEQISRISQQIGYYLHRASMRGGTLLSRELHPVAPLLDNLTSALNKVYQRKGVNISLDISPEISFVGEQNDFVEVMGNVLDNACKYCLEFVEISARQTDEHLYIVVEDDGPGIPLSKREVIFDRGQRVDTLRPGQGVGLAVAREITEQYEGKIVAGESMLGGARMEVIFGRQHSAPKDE

- Variants of: B1
- test-protocol: enrichment ratio after two sorts for PhoP signalling (ratio (wild type AVST 3.29)); higher = more functional
- condition-parameters: with PhoP (E. coli)
In all, about 140,000 sequences were measured (“enrichment ratio after two sorts for PhoP signalling”: median about 0, highest 2% from about 11 on). The full list was thinned out, with the highest values kept by preference.
measurement-label: enrichment ratio
Give the figure only, with no unit attached.

For orientation, consider the following solved cases.
TESS : 15
QESS : 19.7
TKMY : 24
AIMY : 6.62
ADMY : 0.253
TKQL : 23.2

Which measured enrichment ratio value corresponds to TGMY ? 12.7

Which measured enrichment ratio value corresponds to STMY ? 12.6

Which measured enrichment ratio value corresponds to QGSS ? 14.4
